Origin of values: ChEMBL document CHEMBL4382273

# measurement-notes: Selectivity index, ratio of IC50 for rat L6 cells to IC50 for trypomastigote stage of Trypanosoma brucei rhodesiense STIB900
# Type: toxicity
# setup-conditions: read-out: Ratio IC50
Here the recorded selectivity ratio is given for each entry.
Form rule: numeric answer, no unit written next to it.

Before answering, review these 5 worked examples.
[[record]]
item_smiles = "CC(C)=C[C@H]1[C@@H]2C(C)=CC[C@]34CC[C@H]5C(C)(C)CCC[C@]56C[C@]23[C@@](O)(O6)C(=O)[C@]1(C(C)C)C4=O"
observed_result = 0.7

[[record]]
item_smiles = "CC1=C2C[C@@H]3C(C)(C)O[C@]45O[C@@]4(C(C)C)C(=O)[C@]4(CC[C@H]6C(C)(C)CCC[C@]67C[C@]24[C@]35O7)CC1=O"
observed_result = 2.4

[[record]]
item_smiles = "CC1=C2C[C@@H]3C(C)(C)OC4=C(C(C)C)C(=O)[C@]5(CC[C@H]6C(C)(C)CCC[C@]67C[C@]25[C@@]43O7)CC1=O"
observed_result = 0.7

[[record]]
item_smiles = "CC1=C2[C@H](O)[C@@H]3C(C)(C)OC4=C(C(C)C)C(=O)[C@]5(CC[C@H]6C(C)(C)CCC[C@]67C[C@]25[C@@]43O7)CC1=O"
observed_result = 0.3

[[record]]
item_smiles = "CC(C)C1=C2OC(C)(C)[C@H]3C[C@@]45O[C@]4(C)[C@H](O)C[C@@]4(CC[C@H]6C(C)(C)CCC[C@]67C[C@@]45[C@@]23O7)C1=O"
observed_result = 0.6


INPUT: Kindly indicate its recorded selectivity ratio. Item: `C=CC1=C[C@@H]2[C@H]3C(C)=CO[C@]45O[C@]67CCCC(C)(C)[C@@H]6CC[C@](C1)(C(=O)[C@]3(C(C)C)C4=O)[C@]25C7`
OUTPUT: 1.7

INPUT: Kindly indicate its recorded selectivity ratio. Item: `CC(=O)[C@@]12C[C@H]3C(C)(C)OC4=C(C(C)C)C(=O)[C@]5(CC[C@H]6C(C)(C)CCC[C@]67C[C@@]51[C@@]43O7)C[C@H]2O`
OUTPUT: 0.5
